Target: human glucagon receptor (human, UniProt P47871)
Assay: cell-based or functional assay
Where no end group is shown, it is not given here. [ ]: non-standard residue; d: D form. The star is where a group is joined. Acetyl(2-(4-imidazolyl)) = O=C(Cc1c[nH]cn1)*; Aib = CC(C)(N)C(=O)O

binder	measure unit	qualifier operator	EC50 (nM), cAMP
H[Aib]QGTFTSDYAKYLDEKRAKEFVQWLMNTC (also: ring marking not visible) [oxyntomodulin derivative of SEQ ID NO. 33]	nM	=	80.2
HSQGTFTSDYSRYLDEEAVRLFIEWIRNTKRNRNNIA (not fully specified (residue 1, N-terminus); also: N-terminal CA (4-imidazoacetyl), whether it replaces His1 not given here) [oxyntomodulin derivative of SEQ ID NO. 17]	nM	>	1000
HGEGTFTSDLSRQMEEEAVRLFIEWAAHSQGTFTSDYSKYLD (not fully specified (residue 1, N-terminus); also: N-terminal CA (4-imidazoacetyl), whether it replaces His1 not given here) [oxyntomodulin derivative of SEQ ID NO. 6]	nM	>	1000
H[Aib]QGTFTSDYSKYLDEKRAKEFVCWLMNT (also: ring between residues marked, places not visible) [oxyntomodulin derivative of SEQ ID NO. 23]	nM	=	5.8
HGEGTFTSDLSRQMEEEAVRLFIEWAAHSQGTFTSDYSRYLDK (not fully specified (residue 1, N-terminus); also: N-terminal CA (4-imidazoacetyl), whether it replaces His1 not given here) [oxyntomodulin derivative of SEQ ID NO. 11]	nM	>	1000
[Acetyl(2-(4-imidazolyl))][Aib]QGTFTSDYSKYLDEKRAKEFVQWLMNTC (also: ring between residues marked, places not visible) [oxyntomodulin derivative of SEQ ID NO. 32]	nM	=	17.3
HSQGTFTSDYSRYLDEEAVELFIEWLMNTK [oxyntomodulin derivative of SEQ ID NO. 13]	nM	>	1000
Y[Aib]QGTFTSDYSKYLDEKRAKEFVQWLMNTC (also: ring marking not visible) [oxyntomodulin derivative of SEQ ID NO. 34]	nM	=	1
[Acetyl(2-(4-imidazolyl))]SQGTFTSDYSRYLDEEAVRLFIEWIRNGGPSSGAPPPSK (also: N-terminal CA (4-imidazoacetyl), whether it replaces His1 not given here) [oxyntomodulin derivative of SEQ ID NO. 18]	nM	>	1000
[Acetyl(2-(4-imidazolyl))]SQGTFTSDLSRQLEEEAVRLFIEWLMNK (also: N-terminal CA (4-imidazoacetyl), whether it replaces His1 not given here) [oxyntomodulin derivative of SEQ ID NO. 8]	nM	>	1000
H[Aib]QGTFTSDYSKYLDEKRAKEFVQWLMNT (also: ring between residues marked, places not visible) [oxyntomodulin derivative of SEQ ID NO. 28]	nM	=	0.3

Origin of values: patent US9731031B2
